Source listed as patent US3996359A.

# Therapeutic ratio thymus/granuloma values compiled below
system: rats subjected to adrenalectomy (granuloma around implanted cotton wads); assay: granulom test (cotton-pellet test) on rats subjected to adrenalectomy: granuloma growth, thymus weight, body weight increase; assay type: in vivo, rat (Sprague-Dawley); details: rat, in vivo
REPORTED METRIC: Therapeutic ratio thymus/granuloma

MOLECULE: CCCCC(=O)OCC(=O)[C@@]12OC(C)O[C@@H]1C[C@H]1[C@@H]3CCC4=CC(=O)C=C[C@]4(C)[C@@]3(F)[C@@H](O)C[C@@]12C (single isomer, unassigned) [18 B]
RECORDED MEASUREMENT: > 3.3

MOLECULE: CCCC1O[C@@H]2C[C@H]3[C@@H]4C[C@H](F)C5=CC(=O)C=C[C@]5(C)[C@@]4(F)[C@@H](O)C[C@]3(C)[C@]2(C(=O)COC(=O)c2cc3ccccc3o2)O1 (single isomer, unassigned) [25 A]
RECORDED MEASUREMENT: > 5.0

MOLECULE: CCCCC(=O)OCC(=O)[C@@]12OC(CCC)O[C@@H]1C[C@H]1[C@@H]3CCC4=CC(=O)C=C[C@]4(C)[C@@]3(F)[C@@H](O)C[C@@]12C (single isomer, unassigned) [22 A]
RECORDED MEASUREMENT: > 30.0

MOLECULE: CCCC1O[C@@H]2C[C@H]3[C@@H]4CCC5=CC(=O)C=C[C@]5(C)[C@@]4(F)[C@@H](O)C[C@]3(C)[C@]2(C(=O)COC(=O)c2cc3ccccc3o2)O1 (single isomer, unassigned) [20 A]
RECORDED MEASUREMENT: > 30.0

MOLECULE: CCCC1O[C@@H]2C[C@H]3[C@@H]4C[C@H](F)C5=CC(=O)C=C[C@]5(C)[C@@]4(F)[C@@H](O)C[C@]3(C)[C@]2(C(=O)COC(=O)c2cc3ccccc3o2)O1 (single isomer, unassigned) [25 B]
RECORDED MEASUREMENT: > 2.3

MOLECULE: CCCCC(=O)OCC(=O)[C@@]12OC(C)O[C@@H]1C[C@H]1[C@@H]3CCC4=CC(=O)C=C[C@]4(C)[C@@]3(F)[C@@H](O)C[C@@]12C (single isomer, unassigned) [18 A]
RECORDED MEASUREMENT: > 23.3

MOLECULE: CCCC1O[C@@H]2C[C@H]3[C@@H]4CCC5=CC(=O)C=C[C@]5(C)[C@H]4[C@@H](O)C[C@]3(C)[C@]2(C(=O)COC(C)=O)O1 (single isomer, unassigned) [27 B]
RECORDED MEASUREMENT: > 20.0

----------
test system: rats subjected to adrenalectomy (granuloma around implanted cotton wads); test: granulom test (cotton-pellet test) on rats subjected to adrenalectomy: granuloma growth, thymus weight, body weight increase; type: in vivo, rat (Sprague-Dawley); settings: rat, in vivo, 11520 min
REPORTED METRIC: Dose required to obtain 50% inhibition of Thymus weight

MOLECULE: CCCC1O[C@@H]2C[C@H]3[C@@H]4CCC5=CC(=O)C=C[C@]5(C)[C@H]4[C@@H](O)C[C@]3(C)[C@]2(C(=O)CO)O1 (single isomer, unassigned) [12 B]
RECORDED MEASUREMENT: 70 γ/animal

MOLECULE: CC1O[C@@H]2C[C@H]3[C@@H]4CCC5=CC(=O)C=C[C@]5(C)[C@@]4(F)[C@@H](O)C[C@]3(C)[C@]2(C(=O)COC(=O)c2cc3ccccc3o2)O1 (some centres unmarked) [16 B]
RECORDED MEASUREMENT: 10 γ/animal

MOLECULE: CCCCC1OC2CC3C4CCC5=CC(=O)C=CC5(C)C4(F)C(O)CC3(C)C2(C(=O)CO)O1 (mixture of isomers)
RECORDED MEASUREMENT: 70 γ/animal

MOLECULE: CCCC1O[C@@H]2C[C@H]3[C@@H]4CCC5=CC(=O)C=C[C@]5(C)[C@@]4(F)[C@@H](O)C[C@]3(C)[C@]2(C(=O)COC(=O)c2cc3ccccc3o2)O1 (single isomer, unassigned) [20 B]
RECORDED MEASUREMENT: 20 γ/animal

MOLECULE: CCCCCC1O[C@@H]2C[C@H]3[C@@H]4CCC5=CC(=O)C=C[C@]5(C)[C@H]4[C@@H](O)C[C@]3(C)[C@]2(C(=O)CO)O1 (single isomer, unassigned) [13 A]
RECORDED MEASUREMENT: > 270 γ/animal

MOLECULE: CCCC1OC2CC3C4CCC5=CC(=O)C=CC5(C)C4(F)C(O)CC3(C)C2(C(=O)CO)O1 (mixture of isomers)
RECORDED MEASUREMENT: > 30 γ/animal

MOLECULE: CCCC1O[C@@H]2C[C@H]3[C@@H]4CCC5=CC(=O)C=C[C@]5(C)[C@@]4(F)[C@@H](O)C[C@]3(C)[C@]2(C(=O)COC(=O)c2cc3ccccc3o2)O1 (single isomer, unassigned) [20 A]
RECORDED MEASUREMENT: 90 γ/animal

MOLECULE: CC1O[C@@H]2C[C@H]3[C@@H]4CCC5=CC(=O)C=C[C@]5(C)[C@@]4(F)[C@@H](O)C[C@]3(C)[C@]2(C(=O)CO)O1 (some centres unmarked) [1 A+B]
RECORDED MEASUREMENT: 270 γ/animal

MOLECULE: CCCCCC1O[C@@H]2C[C@H]3[C@@H]4CCC5=CC(=O)C=C[C@]5(C)[C@@]4(F)[C@@H](O)C[C@]3(C)[C@]2(C(=O)CO)O1 (single isomer, unassigned) [5 A]
RECORDED MEASUREMENT: 90 γ/animal

MOLECULE: CCC1OC2CC3C4CCC5=CC(=O)C=CC5(C)C4(F)C(O)CC3(C)C2(C(=O)CO)O1 (mixture of isomers)
RECORDED MEASUREMENT: 100 γ/animal

MOLECULE: CCCC1O[C@@H]2C[C@H]3[C@@H]4CCC5=CC(=O)C=C[C@]5(C)[C@@]4(F)[C@@H](O)C[C@]3(C)[C@]2(C(=O)CO)O1 (single isomer, unassigned) [3 A]
RECORDED MEASUREMENT: > 30 γ/animal
